- ASSAY_SYSTEM: HMG-CoA reductase
- PROTOCOL_DETAILS: HMG-CoA Reductase Isolation And Assay (ammonium sulfate precipitated enzyme from rat liver)
- Assay type: biochemical, male Wistar rats
- TEST_PARAMETERS: Table III, racemic mixture
- Method: Livers were harvested from male Wistar rats (250 g) following a five day feeding with powdered chow containing 2% cholestyramine. […] HMG-CoA reductase activity was measured using a modification of the procedure of Edwards, et. al. (Edwards, P. A., Lemongello, […]. Journal of Lipid Research, 20, 1979, 40-46). […]
pIC50: −log10 of the molar value.
QUANTITY: pIC50

Recorded results for 3 compounds are shown here.
> print(dat)
                                   compound  quantity  readout.number
1  C/C(=C\c1c2c(nn1-c1ccc(F)cc1)CCCC2)[C@@H](O)C[C@@H](O)CC(=O)O (relative stereo)     pIC50            5.57
2  O=C(O)C[C@H](O)C[C@H](O)/C=C/c1c2c(nn1-c1ccc(F)cc1)C(Cc1cccc3ccccc13)CCC2 (stereo partly shown)     pIC50            7.59
3  O=C(O)C[C@H](O)C[C@H](O)/C=C/c1c2c(nn1-c1ccc(F)cc1)C(Cc1ccc(-c3ccccc3)cc1)CCC2 (stereo partly shown)     pIC50            8.57

(I) O=C(O)C[C@H](O)C[C@H](O)/C=C/c1c2c(nn1-c1ccc(F)cc1)C(CCCc1ccccc1)CCC2 (stereo partly shown)
(II) O=C(O)C[C@H](O)C[C@H](O)/C=C/c1c2c(nn1-c1ccc(F)cc1)CCCCC2 (relative stereo)
(III) O=C(O)C[C@H](O)C[C@H](O)/C=C/c1c2c(nn1-c1ccc(Cl)cc1)CCCC2 (relative stereo)
(IV) COc1ccc(CC2CCCc3c2nn(-c2ccc(F)cc2)c3/C=C/[C@@H](O)C[C@@H](O)CC(=O)O)cc1 (stereo partly shown)
Incoming: With regard to pIC50, arrange the entries in ascending order, please. The reply should contain the labels ordered as requested.
Outgoing: III, II, I, IV
(III: 5.06, II: 5.42, I: 6.80, IV: 7.85)

---

- ASSAY_SYSTEM: HMG-CoA reductase
- PROTOCOL_DETAILS: HMG-CoA Reductase Isolation And Assay (ammonium sulfate precipitated enzyme from rat liver)
- Assay type: biochemical, male Wistar rats
- TEST_PARAMETERS: Table III, racemic mixture
pIC50: −log10 of the molar value.
QUANTITY: pIC50

(1) O=C(O)C[C@H](O)C[C@H](O)/C=C/c1c2c(nn1-c1ccc(F)cc1)CCCC2 (relative stereo) [Compound 25]
(2) O=C(O)C[C@H](O)C[C@H](O)/C=C/c1c2c(nn1Cc1ccc(F)cc1)CCCCC2 (relative stereo) [Compound 38]
(3) O=C(O)C[C@H](O)C[C@H](O)/C=C/c1c2c(nn1-c1ccc(F)cc1)CCC2 (relative stereo) [Compound 10]
(4) O=C(O)C[C@H](O)C[C@H](O)/C=C/c1c2c(nn1-c1ccc(F)cc1)C(Cc1ccccc1Cl)CCC2 (some centres unmarked) [Compound 12]
(5) CC(C)(C)c1ccc(CC2CCCc3c2nn(-c2ccc(F)cc2)c3/C=C/[C@@H](O)C[C@@H](O)CC(=O)O)cc1 (some centres unmarked) [Compound 21]
Incoming: Arrange these molecules by their pIC50, starting with the largest number. Submit the labels in the order that the ranking request calls for.
Outgoing: 5, 4, 1, 3, 2
(5: 7.80, 4: 7.00, 1: 5.60, 3: 5.29, 2: 4.64)

---

- ASSAY_SYSTEM: HMG-CoA reductase
- PROTOCOL_DETAILS: HMG-CoA Reductase Isolation And Assay (ammonium sulfate precipitated enzyme from rat liver)
- Assay type: biochemical, male Wistar rats
- TEST_PARAMETERS: Table IV, racemic mixture
QUANTITY: IC50 (nM)

> print(dat)
                                   compound  readout.number
1  CCOC(=O)C[C@H](O)C[C@H](O)/C=C/c1c2c(nn1-c1ccc(F)cc1)C(Cc1ccccc1)CCC2 (mixture of isomers) [Compound 47]             120

(A) CCOC(=O)C[C@H](O)C[C@H](O)/C=C/c1c2c(nn1-c1ccc(F)cc1)C(Cc1ccc(C)cc1)CCC2 (stereo partly shown) [Compound 62]
(B) CCOC(=O)C[C@H](O)C[C@H](O)/C=C/c1c2c(nn1-c1ccc(F)cc1)C(Cc1cccc(OC)c1)CCC2 (stereo partly shown) [Compound 58]
(C) CCOC(=O)C[C@H](O)C[C@H](O)/C=C/c1c2c(nn1-c1ccc(F)cc1)C(Cc1ccc(C(C)(C)C)cc1)CCC2 (stereo partly shown) [Compound 64]
Incoming: Form: Sort by [IC50] Order [ ascending ] Reply with the item labels sorted in the order that was asked for.
Outgoing: C, A, B
(C: 30 nM, A: 70 nM, B: 210 nM)

---

- ASSAY_SYSTEM: HMG-CoA reductase
- PROTOCOL_DETAILS: HMG-CoA Reductase Isolation And Assay (ammonium sulfate precipitated enzyme from rat liver)
- Format: biochemical, male Wistar rats
- TEST_PARAMETERS: Table V, racemic mixture
pIC50: −log10 of the molar value.
QUANTITY: pIC50

> print(dat)
                                   compound  quantity  readout.number
1  CC(C)(C)c1ccc(CC2CCCc3c2nn(-c2ccc(F)cc2)c3/C=C/[C@@H]2C[C@@H](O)CC(=O)O2)cc1 (stereo partly shown) [Compound 82]     pIC50            7.15
2  O=C1C[C@H](O)C[C@@H](/C=C/c2c3c(nn2-c2ccc(F)cc2)CCCC3)O1 (relative stereo) [Compound 83]     pIC50            5.05

(P) O=C1C[C@H](O)C[C@@H](/C=C/c2c3c(nn2-c2ccc(F)cc2)C(Cc2ccccc2)CCC3)O1 (mixture of isomers) [Compound 79]
(Q) CCC(CC)CC1CCCc2c1nn(-c1ccc(F)cc1)c2/C=C/[C@@H]1C[C@@H](O)CC(=O)O1 (stereo partly shown) [Compound 80]
Incoming: Thinking about recorded pIC50 values, which is higher, P or Q ? Lab note: record the label of whichever item you select.
Outgoing: P

---

- ASSAY_SYSTEM: HMG-CoA reductase
- PROTOCOL_DETAILS: HMG-CoA Reductase Isolation And Assay (ammonium sulfate precipitated enzyme from rat liver)
- Type: biochemical, male Wistar rats
- TEST_PARAMETERS: Table III, racemic mixture
pIC50: −log10 of the molar value.
QUANTITY: pIC50

> print(dat)
                                   molecule       assay.system  quantity  readout.number
1  Cc1ccc(CC2CCCc3c2nn(-c2ccc(F)cc2)c3/C=C/[C@@H](O)C[C@@H](O)CC(=O)O)cc1 (stereo partly shown)  HMG-CoA reductase     pIC50            7.72

(P) CC(C)c1ccc(CC2CCCc3c2nn(-c2ccc(F)cc2)c3/C=C/[C@@H](O)C[C@@H](O)CC(=O)O)cc1 (stereo partly shown)
(Q) O=C(O)C[C@H](O)C[C@H](O)/C=C/c1c2c(nn1-c1ccc(F)cc1)C(Cc1ccc(Cl)cc1)CCC2 (stereo partly shown)
(R) CCCC1CCCc2c1nn(-c1ccc(F)cc1)c2/C=C/[C@@H](O)C[C@@H](O)CC(=O)O (stereo partly shown)
Incoming: Sort by pIC50, descending. Labels, ranked as asked.
Outgoing: P, Q, R
(P: 7.85, Q: 7.24, R: 5.89)

---

- ASSAY_SYSTEM: HMG-CoA reductase
- PROTOCOL_DETAILS: HMG-CoA Reductase Isolation And Assay (ammonium sulfate precipitated enzyme from rat liver)
- Format: biochemical, male Wistar rats
- TEST_PARAMETERS: Table III, racemic mixture
pIC50: −log10 of the molar value.
QUANTITY: pIC50

Answered cases to consult:
> print(dat)
                                   compound  readout.number
1  O=C(O)C[C@H](O)C[C@H](O)/C=C/c1c2c(nn1-c1ccc(F)cc1)C(Cc1ccc3ccccc3c1)CCC2 (some centres unmarked)            8.25
2  O=C(O)C[C@H](O)C[C@H](O)/C=C/c1c2c(nn1-c1ccc(F)cc1)C(Cc1ccccc1)CCC2 (some centres unmarked)            7.07

(P) CCC(C)C1CCCc2c1nn(-c1ccc(F)cc1)c2/C=C/[C@@H](O)C[C@@H](O)CC(=O)O (some centres unmarked)
(Q) COc1cccc(CC2CCCc3c2nn(-c2ccc(F)cc2)c3/C=C/[C@@H](O)C[C@@H](O)CC(=O)O)c1 (some centres unmarked)
(R) COc1ccc(CC2CCCc3c2nn(-c2ccc(F)cc2)c3/C=C/[C@@H](O)C[C@@H](O)CC(=O)O)cc1OC (some centres unmarked)
(S) O=C(O)C[C@H](O)C[C@H](O)/C=C/c1c2c(nn1-c1ccc(F)cc1)-c1ccccc1CC2 (relative stereo)
(T) O=C(O)C[C@H](O)C[C@H](O)/C=C/c1c2c(nn1-c1ccc(F)cc1)C(CCc1ccccc1)CCC2 (some centres unmarked)
Incoming: In this exercise, place the 5 compounds in ascending sequence of their recorded pIC50. The response must list the labels following the requested ordering.
Outgoing: S, P, T, R, Q

(P) O=C(O)C[C@H](O)C[C@H](O)/C=C/c1c2c(nn1-c1ccc(F)cc1)C(Cc1ccc(F)cc1)CCC2 (some centres unmarked)
(Q) CCC1CCCc2c1nn(-c1ccc(F)cc1)c2/C=C/[C@@H](O)C[C@@H](O)CC(=O)O (some centres unmarked)
(R) O=C(O)C[C@H](O)C[C@H](O)/C=C/c1c2c(nn1-c1ccc(F)cc1)-c1ccccc1CCC2 (relative stereo)
(S) O=C(O)C[C@H](O)C[C@H](O)/C=C/c1c2c(nn1-c1ccc(F)cc1)C(CC=Cc1ccccc1)CCC2 (some centres unmarked)
(T) O=C(O)C[C@H](O)C[C@H](O)/C=C/c1c2c(nn1-c1ccc(F)cc1)C(C1CCCCC1)CCC2 (some centres unmarked)
Incoming: Place the items in sequence of falling pIC50. Return the labels ranked in the requested order, please.
Outgoing: S, P, Q, R, T
(S: 7.49, P: 6.82, Q: 6.00, R: 5.68, T: 5.11)

(P) CC1CCCc2c1nn(-c1ccc(F)cc1)c2/C=C/[C@@H](O)C[C@@H](O)CC(=O)O (some centres unmarked)
(Q) O=C(O)C[C@H](O)C[C@H](O)/C=C/c1c2c(nn1-c1ccc(F)cc1)C(c1ccccc1)CCC2 (some centres unmarked)
Incoming: Could you check which of P and Q has a smaller value for pIC50? # reply format: chosen label
Outgoing: Q
(Q: 5.51, P: 5.96)

The reported numbers originate from patent US5250561A.
